- procedureDetails: physchem
- assayConditions: buffer, pH 7.4
Define the label as yes (1) when logD is strictly less than 3 and as no (0) in all remaining cases.

1. COc1cc2ncc(C(=O)N(C)C)c(Nc3ccc(Cl)cc3F)c2cc1OC ... yes (1)
2. Nc1nc(-c2ccccc2)c2ccccc2n1 ... yes (1)
3. CNc1nc2nc3c1[nH]c(=O)n3Cc1cccc(c1)OCCNC(=O)CO2 ... yes (1)
4. CNC(=O)c1cnc2cc(OC)c(OC)cc2c1Nc1ccc(Cl)cc1F ... no (0)

Req: I'd appreciate it if you could check whether CNc1nc2nc3c1[nH]c(=O)n3Cc1cccc(c1)OCC(=O)NCCO2 has logD smaller than 3.
Resp: yes (1)

Req: Given the entry CNC(=O)c1cnc2cc(OC)c(OCN3CCN(C)CC3)cc2c1Nc1ccccc1 , would its reported logD be below 3?
Resp: yes (1)

Req: Report whether reported logD is lower than 3 (strictly) for CNc1nc(-c2ccccc2)c2ccccc2n1
Resp: no (0)

Req: Is the reported logD for CNC(=O)c1cnc2cc(OC)c(OC)cc2c1Oc1ccccc1 strictly below 3?
Resp: yes (1)

Req: Report whether reported logD is lower than 3 (strictly) for CNc1nc2nc3c1[nH]c(=O)n3Cc1cccc(c1)OCCCCO2
Resp: no (0)

Req: Check if logD falls below 3 for CNC(=O)c1cnccc1Nc1ccc(Cl)cc1F .
Resp: no (0)
